Hey, just so you know, these numbers are from patent US20120149660A1.

Target Or Test System: interaction between p53 and MDM2 proteins (recombinant GST-tagged MDM2 / biotinylated p53 peptide) (Homo sapiens, UniProt Q00987)
Sequence (Q00987 whole entry): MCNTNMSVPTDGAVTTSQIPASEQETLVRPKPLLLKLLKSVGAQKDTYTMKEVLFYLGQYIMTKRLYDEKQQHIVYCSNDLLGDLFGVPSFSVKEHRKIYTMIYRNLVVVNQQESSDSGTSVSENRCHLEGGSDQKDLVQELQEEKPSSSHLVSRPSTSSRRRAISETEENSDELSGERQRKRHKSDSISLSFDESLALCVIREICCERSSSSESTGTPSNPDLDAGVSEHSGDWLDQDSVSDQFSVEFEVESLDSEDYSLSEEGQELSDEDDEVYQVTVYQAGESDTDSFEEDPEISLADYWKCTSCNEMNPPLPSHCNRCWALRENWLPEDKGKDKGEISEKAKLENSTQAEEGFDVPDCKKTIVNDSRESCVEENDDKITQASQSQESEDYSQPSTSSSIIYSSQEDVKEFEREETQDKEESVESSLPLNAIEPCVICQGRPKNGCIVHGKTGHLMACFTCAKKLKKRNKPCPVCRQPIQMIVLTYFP
Method Notes: HTRF (homogeneous time-resolved fluorescence) assay of p53-MDM2 interaction inhibition
Run Parameters: bsa: 0.02%
Protocol: The ability of the compounds to inhibit the interaction between p53 and MDM2 proteins was measured by an HTRF (homogeneous time-resolved fluorescence) assay in which recombinant GST-tagged MDM2 binds to a peptide that resembles the MDM2-interacting region of p53. […]
Structures can show the parent of a compound that is named as a salt.
Rule: IC50 below 200 nM gives Criterion met. Equal to or above 200 nM gives Criterion not met.

| Molecule | Label Value |
| --- | --- |
| CCOC(=O)c1ccc(CCCN2[C@@H](CC(C)(C)C)[C@](C#N)(c3ccc(Cl)cc3F)[C@@H](c3cccc(Cl)c3F)[C@@H]2CO)cc1 | Criterion not met |
| CC(C)(C)C[C@@H]1N(CCCc2ccc(C(=O)O)cc2)[C@@H](CO)[C@H](c2cccc(Cl)c2F)[C@@]1(C#N)c1ccc(Cl)cc1F | Criterion not met |
| CC(C)(C)C[C@@H]1N[C@@H](CO)[C@H](c2cccc(Cl)c2F)[C@@]1(C#N)c1ccc(Cl)cc1F (racemic) [Example 3] | Criterion not met |
| CC(C)(C)C[C@@H]1N(CC[C@@H](O)[C@H](O)[C@H](O)CO)[C@@H](CO)[C@H](c2cccc(Cl)c2F)[C@@]1(C#N)c1ccc(Cl)cc1F (racemic) | Criterion met |
| CC(C)(C)C[C@@H]1N[C@@H](CO)[C@H](c2cccc(Cl)c2F)[C@@]1(C#N)c1ccc(Cl)cc1F [Example 7] | Criterion met |
| CC(C)(C)C[C@@H]1N(Cc2ccc(OCCO)cc2)[C@@H](CO)[C@H](c2cccc(Cl)c2F)[C@@]1(C#N)c1ccc(Cl)cc1F | Criterion not met |
| CC(C)(C)C[C@@H]1N(CCCc2ccc(C(N)=O)cc2)[C@@H](CO)[C@H](c2cccc(Cl)c2F)[C@@]1(C#N)c1ccc(Cl)cc1F [Example 12, trifluoroacetate salt] | Criterion not met |
| COC(=O)c1ccc(C#CCN2[C@@H](CC(C)(C)C)[C@](C#N)(c3ccc(Cl)cc3F)[C@@H](c3cccc(Cl)c3F)[C@@H]2CO)cc1F | Criterion not met |
| CC(C)(C)C[C@@H]1N[C@@H](CO)[C@H](c2cccc(Cl)c2)[C@@]1(C#N)c1ccc(Cl)cc1 (racemic) | Criterion not met |
| Cc1ccc(CCCN2[C@@H](CC(C)(C)C)[C@](C#N)(c3ccc(Cl)cc3F)[C@@H](c3cccc(Cl)c3F)[C@@H]2CO)o1 [Example 13, trifluoroacetate salt] | Criterion not met |
| CC(C)(C)C[C@@H]1N(CCCC2CCOCC2)[C@@H](CO)[C@H](c2cccc(Cl)c2F)[C@@]1(C#N)c1ccc(Cl)cc1F | Criterion not met |
| CC(C)(C)C[C@@H]1N(CC#Cc2ccc(C(=O)O)c(F)c2)[C@@H](CO)[C@H](c2cccc(Cl)c2F)[C@@]1(C#N)c1ccc(Cl)cc1F | Criterion met |
